ASSAYED SYSTEM: pfDHODH (Plasmodium falciparum (isolate 3D7), UniProt Q08210)
Sequence (Q08210 159-565 limits assumed): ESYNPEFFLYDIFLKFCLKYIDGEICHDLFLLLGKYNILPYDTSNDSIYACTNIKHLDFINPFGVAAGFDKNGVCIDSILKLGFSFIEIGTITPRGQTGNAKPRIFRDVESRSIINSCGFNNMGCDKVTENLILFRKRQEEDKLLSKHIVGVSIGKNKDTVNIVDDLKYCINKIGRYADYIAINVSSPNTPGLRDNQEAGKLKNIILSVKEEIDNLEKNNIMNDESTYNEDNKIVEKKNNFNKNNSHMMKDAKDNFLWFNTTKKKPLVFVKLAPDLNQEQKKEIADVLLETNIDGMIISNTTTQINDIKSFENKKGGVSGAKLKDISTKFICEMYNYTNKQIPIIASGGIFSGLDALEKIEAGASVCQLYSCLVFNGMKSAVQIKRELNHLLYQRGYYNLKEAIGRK
TEST DETAILS: DHODH chromogen reduction (DCIP) assay, pfDHODH
Format: biochemical, P. falciparum
TEST PARAMETERS: DCIP assay; 200 μM L-DHO, 18 μM CoQD, 100 μM DCIP, 20 nM enzyme; read-out: pfDHODH IC50
Could you please report measured pIC50 for the items listed next?
Remember the convention: pIC50 equals -log10 of concentration in molar.

Task: Report pIC50 under test system pfDHODH (Plasmodium falciparum (isolate 3D7), UniProt Q08210) for "CCCNC(=O)c1ccc(-n2c(C)cc3ccccc32)s1" .
Result: 7.38

Task: Report pIC50 under test system pfDHODH (Plasmodium falciparum (isolate 3D7), UniProt Q08210) for "O=C(NC1CC1)c1ccc(N2CCSc3ccccc32)s1" .
Result: 6.60

====

ASSAYED SYSTEM: pfDHODH (Plasmodium falciparum (isolate 3D7), UniProt Q08210)
TEST DETAILS: DHODH chromogen reduction (DCIP) assay, pfDHODH
Format: biochemical, P. falciparum
TEST PARAMETERS: pfDHODH IC50, Table 2b
Could you please report measured IC50 for the items listed next?
For clarity, give the value followed by its unit.

Task: Supply measured IC50 of Cc1nc2cc(Cl)ccc2n1-c1ccc(C(=O)NC2CC2)s1 [Compound 41] in your reply.
Result: 40 nM

Task: Supply measured IC50 of Cc1nc2cc(Cl)ccc2n1-c1ccc(C(=O)NC2CC2)s1 [Compound 40] in your reply.
Result: 58 nM

====

Test system: P. falciparum 3D7
TEST DETAILS: Inhibition of in vitro P. falciparum culture, [3H]-hypoxanthine uptake, 3D7
Type: cell-based
TEST PARAMETERS: Plasmodium falciparum, 3D7, Table 2b; read-out: 3D7 EC50
hey, just use T if measured EC50 is less than 200 nM, otherwise F

Task: A record lists "Cc1cccc2c1nc(C)n2-c1ccc(C(=O)NC2CC2)s1" . Is its EC50 below 200 nM?
Result: T

Task: A record lists "CCNC(=O)c1ccc(-n2cnc3cc(C)ccc32)s1" . Is its EC50 below 200 nM?
Result: T

Task: A record lists "Cc1nc2cc(OC(F)(F)F)ccc2n1-c1ccc(C(=O)NC2CC2)s1" . Is its EC50 below 200 nM?
Result: T

Task: A record lists "Cc1nc2ncccc2n1-c1ccc(C(=O)NC2CC2)s1" . Is its EC50 below 200 nM?
Result: F

Task: A record lists "CCNC(=O)c1ccc(-n2cc(-c3ccccc3)nc2C)s1" . Is its EC50 below 200 nM?
Result: F

Task: A record lists "CCCc1nc2ccccc2n1-c1ccc(C(=O)NC2CC2)s1" . Is its EC50 below 200 nM?
Result: F

Task: A record lists CCCNC(=O)c1ccc(N2CC(C)Sc3ccccc32)s1 (stereo not shown) . Is its EC50 below 200 nM?
Result: F

Task: A record lists "Cc1nc(-c2ccccc2)cn1-c1ccc(C(=O)NC2CC2)s1" . Is its EC50 below 200 nM?
Result: T

Task: A record lists "CCCNC(=O)c1ccc(N2Cc3cccc(OC)c3Oc3ncccc32)s1" . Is its EC50 below 200 nM?
Result: F

Task: A record lists "Cc1nc(-c2ccc(F)cc2)cn1-c1ccc(C(=O)NC2CC2)s1" . Is its EC50 below 200 nM?
Result: F
